Reported GI50 values follow for various compounds
- Test system: A549
- Experiment description: NCI tumour cell line growth inhibition, 48 h
Activity calls are given as the source filed them. Rule as the data show it: active = GI50 up to about 1.1 µM and inactive = higher.

Compound: ClCCCc1ccccc1C1=NCCc2ccccc21
Experimental readout: GI50
Value measured: 54.2 µM (inactive)

Indicate the recorded GI50 value for this compound: O=C1NC(=S)S/C1=C/c1ccco1 > 100 µM (inactive)

Indicate the recorded GI50 value for this compound: CC(=O)/C=C1\Nc2ccc([N+](=O)[O-])cc2N\C1=C/C(C)=O 38.3 µM (inactive)

###

- Tested on: HCT-15
Reported GI50 values follow for various molecules
# output: bare number, implied unit µM

Known results for molecules:
Molecule: CC(=O)/C=C1\Nc2ccc([N+](=O)[O-])cc2N\C1=C/C(C)=O
Tested system: HCT-15
GI50 / µM: 33.4

Molecule: CC(=O)O[C@H]1CC[C@@]2(C)C(=CC[C@@H]3C2CC[C@]2(C)Nc4nc5ccccc5cc4CC32)C1 (some centres not stated)
Tested system: HCT-15
GI50 / µM: 2.51

Molecule: CC(=O)c1csc2c1C(=O)c1ccccc1C2=O
Tested system: HCT-15
GI50 / µM: 4.55

We now examine a further molecule.
Give GI50; test system HCT-15; molecule CC(=O)OC1CC[C@@]2(C)C(C1)CC(OC(C)=O)[C@@H]1C2CC(OC(C)=O)[C@]2(C)C(C(C)CC=C(c3ccc(Cl)cc3)c3ccc(Cl)cc3)CCC12 (some centres not stated) 38.1

###

Reported GI50 values follow for various molecules
- Test system: IGROV-1
- Experiment description: NCI tumour cell line growth inhibition, 48 h
Active and inactive are the calls of the source. Cut-off read from the data, not from the text of the source: active = GI50 up to about 1.1 µM and inactive = higher.

Known results for molecules:
Molecule: O=C1/C(=C/c2cccc([N+](=O)[O-])c2)Sc2scc(-c3ccc([N+](=O)[O-])cc3)[n+]21
Value measured: 18.6 µM (inactive)

Molecule: O=C1NC(=S)S/C1=C/c1ccco1
Value measured: > 100 µM (inactive)

Indicate the recorded GI50 value for this molecule: CC(C)(C)[Si](C)(C)OCC1OC(n2ccc(=O)[nH]c2=O)C(O[Si](C)(C)C(C)(C)C)[C@@]12O[C@H]2C(N)=O (stereo not given in full) 2.86 µM (inactive)

Indicate the recorded GI50 value for this molecule: O=C1c2nn(-c3ccccc3)nc2C(c2ccccc2)N1c1ccccc1 (stereo not given) 77.6 µM (inactive)

Indicate the recorded GI50 value for this molecule: CC(C)(C)NC(=O)C12C3C4C1C1C2C3C41C(=O)NC(C)(C)C (stereo not given) > 100 µM (inactive)

###

- Test system: SF-539
- Experiment description: NCI tumour cell line growth inhibition, 48 h
The source made the active and inactive calls. Rule as the data show it: active = GI50 up to about 1.1 µM and inactive = higher.
Hi there, use one of these labels in your reply, thanks! label 1 = active, label 0 = inactive

Call for entry CC(=O)c1ccc2c(c1)C(=O)c1sc(C(C)=O)cc1C2=O : label 1

Call for entry O=C1c2nn(-c3ccccc3)nc2C(c2ccccc2)N1c1ccccc1 (stereo unspecified) : label 0

Call for entry CN(C)c1ccc(NN=C2SC(=N\c3ccccc3)/C(=N/c3ccccc3)S2)cc1 : label 0

Call for entry CCCCCC(C[N+]1(C)CCOCC1)C(=O)/C=C/c1ccccc1 (stereo unspecified) : label 0

###

- Tested on: M19-MEL
- Experiment description: NCI tumour cell line growth inhibition, 48 h
Calls of active or inactive are those of the source. Cut-off read from the data, not from the text of the source: active = GI50 up to about 1.1 µM and inactive = higher.
Experimental readout: GI50

Known results for molecules:
Molecule: O=C(O)C1CCCCN1c1ccccc1[N+](=O)[O-] (stereo not given)
GI50: > 100 µM (inactive)
--
Molecule: Cc1ccc(NC(=O)COC(=O)c2cccc3c(=O)c4ccccc4[nH]c23)cc1
GI50: 46.7 µM (inactive)
--
Molecule: CCO/C([O-])=C(\C(=O)c1ccccc1)[n+]1c(C)n(C)c2ccccc21
GI50: > 100 µM (inactive)
--
Molecule: C#C[C@]1(O)CCC2C3CCc4cc(Oc5nc(F)nc(-c6c7cc8ccccc8cc7c7n6CCS7)n5)ccc4C3CCC21C (stereo not given in full)
GI50: 30.3 µM (inactive)
--
Molecule: COc1ccc(OC(=O)CC2Cc3cc(OC)c(OC)c(OC)c3-c3ccc(SC)c(=O)cc32)cc1 (stereo not given)
GI50: 5.74 µM (inactive)

Indicate the recorded GI50 value for this molecule: COC(=O)C1C(C)N1C (stereo not given) > 100 µM (inactive)

Indicate the recorded GI50 value for this molecule: COc1cccc(NC(=O)CC(=O)N2N=C(N3c4ccccc4Sc4ccccc43)CC2c2ccccc2)c1 (stereo not given) > 100 µM (inactive)

###

Reported GI50 values follow for various compounds
- Test system: T47D
- Experiment description: NCI tumour cell line growth inhibition, 48 h
Active and inactive are the calls of the source. No stated cut-off is given here; in the data, active = GI50 up to about 1.1 µM and inactive = higher.

Known results for compounds:
Compound: C=C(CN(C)C)C(=O)c1ccc(OC)cc1
GI50: 0.881 µM (active)
//
Compound: CC(C)C(Cl)CC/C(CBr)=C(\Cl)CCl (centres undefined)
GI50: 1.5 µM (inactive)
//
Compound: CCOC(=O)NC(Nc1ncccn1)(C(=O)OCC)C(F)(F)F (centres undefined)
GI50: 56 µM (inactive)
//
Compound: N=C(c1cccs1)C1(N2CCCCC2)CCCCC1
GI50: 11.6 µM (inactive)
//
Compound: NC(=O)C1CCCNC1 (centres undefined)
GI50: > 100 µM (inactive)
//
Compound: CN(C)CCCc1c2ccccc2nc2ccc(Cl)cc12
GI50: 36.5 µM (inactive)
//
Compound: CC(C)=CCC/C(=C/CC/C(=C\CCc1ccoc1)C(=O)O)C(=O)O
GI50: > 100 µM (inactive)
//
Compound: O=c1c2cccnc2cc(-c2ccccc2)n1CCO
GI50: > 100 µM (inactive)

Indicate the recorded GI50 value for this compound: COC(=O)c1c(C)cccc1CC1Cc2c(C)cccc2C1=O (centres undefined) 27.5 µM (inactive)

Indicate the recorded GI50 value for this compound: COc1ccc(C2=CN3CCC[C@H]3C=C2c2cc(O)c(OC)c(OC)c2)cc1OC 0.00371 µM (active)

Indicate the recorded GI50 value for this compound: COC(=O)c1cc(C)ccc1C1CN=NC12Cc1cccc(C)c1C2=O (centres undefined) 12.3 µM (inactive)

Indicate the recorded GI50 value for this compound: Cc1cc(N(CCC#N)S(=O)(=O)c2ccccc2)ccc1/C=N/c1ccc(C(=O)O)cc1 > 100 µM (inactive)

Indicate the recorded GI50 value for this compound: Cc1cc(C)nc(NS(=O)(=O)c2ccc(Nc3nncc(=O)n3N)cc2)n1 16.3 µM (inactive)

###

- Test system: NCI-H226
- Experiment description: NCI tumour cell line growth inhibition, 48 h
Active and inactive are the calls of the source. Rule as the data show it: active = GI50 up to about 1.1 µM and inactive = higher.
Hi there, use one of these labels in your reply, thanks! true (active), false (inactive)

Past entries and their recorded results:
Molecule: COc1cc(-c2cn(S(=O)(=O)c3ccc(C)cc3)c3ccccc23)nc(-c2cn(S(=O)(=O)c3ccc(C)cc3)c3ccccc23)n1
Category label: true

Molecule: CN(C)c1ccc(/N=N/c2ccccn2)cc1
Category label: false

Molecule: CCCC[P+](CCCC)(CCCC)C(C(=O)OC)C(C(=O)OC)=C1SC(C(=O)OC)=C(C(=O)OC)S1 (stereo not given)
Category label: false

Molecule: N#CC12CNCC1CN=N2 (stereo not given)
Category label: false

Molecule: COC(=O)CCC(C)[C@H]1CCC2C3C(C[C@H](OC(C)=O)[C@@]21C)[C@@]1(C)CCC2(C[C@H]1C[C@H]3OC(C)=O)OOC1(CCCCC1)OO2 (stereo not given in full)
Category label: false

Call for entry O=C1c2nn(-c3ccccc3)nc2C(c2ccccc2)N1c1ccccc1 (stereo not given) : false

Call for entry C/C(=C\c1ccccc1)C(O)S(=O)(=O)O (stereo not given) : false

Call for entry CCOC(=O)Cn1nnc2cc(Nc3nc4ccccc4nc3C(=O)OCC)ccc21 : false

Call for entry C[C@H]1C(=O)O[C@@H]1[C@H]1COC(C)(C)O1 : false

Call for entry CNC1(C(=O)O)CC1 : false

###

- System: KM12
- Experiment description: NCI tumour cell line growth inhibition, 48 h
The source made the active and inactive calls. Cut-off read from the data, not from the text of the source: active = GI50 up to about 1.1 µM and inactive = higher.
Reported GI50 values follow for various compounds

Compound: Cc1nn(C(=O)Cc2ccccc2)c2c1C(c1ccc(Cl)cc1)SC(=N)N2 (stereo not given)
Value measured: > 100 µM (inactive)

Compound: CCO/C([O-])=C(\C(=O)c1ccccc1)[n+]1c(C)n(C)c2ccccc21
Value measured: > 100 µM (inactive)

Compound: CN(C)CCONC(=O)C12CC3CC(CC(C3)C1)C2
Value measured: > 100 µM (inactive)

Compound: CC(=O)OC1CC[C@@]2(C)C(C1)CC(OC(C)=O)[C@@H]1C2CC(OC(C)=O)[C@]2(C)C(C(C)CC=C(c3ccc(Cl)cc3)c3ccc(Cl)cc3)CCC12 (stereo not given in full)
Value measured: 64 µM (inactive)

Compound: COc1cc(-c2cn(S(=O)(=O)c3ccc(C)cc3)c3ccccc23)nc(-c2cn(S(=O)(=O)c3ccc(C)cc3)c3ccccc23)n1
Value measured: 0.438 µM (active)

Indicate the recorded GI50 value for this compound: CC(=O)c1ccc2c(c1)C(=O)c1sc(C(C)=O)cc1C2=O 1.01 µM (active)

Indicate the recorded GI50 value for this compound: COc1cccc(NC(=O)CC(=O)N2N=C(N3c4ccccc4Sc4ccccc43)CC2c2ccccc2)c1 (stereo not given) > 100 µM (inactive)

Indicate the recorded GI50 value for this compound: O=C(/C=C/c1ccccc1)/C=C/c1ccccc1 18 µM (inactive)

Provenance of the data: ChEMBL document CHEMBL1201862
